Values from patent US20260306460A1

Test system: naturally aged mice
assay text: Anti-aging evaluation in naturally aged mice, Example 31, Table 55;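 also: Vehicle-dosed control mice received solution alone at matching volume, values compare test-compound-treated aged mice against that control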
Format: in vivo, mouse
applied conditions: untreated 0.82 g
The following compounds are listed with their measured Fat Mass values.

{"columns": ["smiles structure", "Fat Mass [g]"],
 "data": [
  ["Cn1cc(C[C@@H](N)C(=O)O)c2ccccc21", 0.94],
  ["CCc1nc(C(N)=O)c(Nc2ccc(N3CCC(N4CCN(C)CC4)CC3)c(OC)c2)nc1NC1CCOCC1", 1.08],
  ["C[C@@H](Nc1nc(N[C@H](C)C(F)(F)F)nc(-c2cccc(Cl)n2)n1)C(F)(F)F", 1.20],
  ["CC(=O)N[C@@H](Cc1c[nH]c2ccccc12)C(=O)N[C@@H](CCC(=O)C=[N+]=[N-])C(=O)OC(C)C", 1.06]
]}
